Tested on: HBV
test-protocol: HepAD38 antiviral assay: reduction of viral product accumulation (virion DNA by qPCR, HBsAg or HBeAg by ELISA)
Format: cell-based, hepatitis B virus
condition-label: HepAD38 cells; harvest five days after compound addition; 50% reduction of viral product accumulation relative to no drug controls
Experimental: Methods: HepAD38 cells are maintained as previously reported (Ladner et al, Antimicrob. Agents Chemother. 1997, […], 1715). Briefly, cells are passaged upon attaining confluency in DMEM/F12 media in the presence of 10% FBS, Penn/Strep, 250 μg/mL G418, and 1 μg/ml tetracycline. […] On harvest day, virion DNA is obtained by lysing with Sidestep Lysis and Stabilization Buffer and then quantified via quantitative real time PCR. […]
pEC50: −log10 of the molar value.
Reported pEC50 values are given for each entry in this list.

-- ask In one line, give reported pEC50 of the entry O=C(O)CCN1C(=O)OC[C@@]12CC1=C(c3ccn(C(F)F)n3)[C@H](c3ccc(F)cc3Cl)N=C(c3nccs3)N1C2 [Example 22] .
-- reply < 6.40

Others:
-- ask Look up pEC50 of O=C(O)CCN1C(=O)OC[C@@]12CC1=C(c3ccn(C(F)F)n3)[C@H](c3ccc(F)cc3Cl)N=C(c3nccs3)N1C2 [Example 30] and report it.
-- reply > 7.00

Origin of the recorded values: patent US10428070B2
